# assayedTarget: D3 (h) (Homo sapiens, UniProt P35462)
# Construct: host or cells: CHO cells
# Sequence (P35462 whole entry): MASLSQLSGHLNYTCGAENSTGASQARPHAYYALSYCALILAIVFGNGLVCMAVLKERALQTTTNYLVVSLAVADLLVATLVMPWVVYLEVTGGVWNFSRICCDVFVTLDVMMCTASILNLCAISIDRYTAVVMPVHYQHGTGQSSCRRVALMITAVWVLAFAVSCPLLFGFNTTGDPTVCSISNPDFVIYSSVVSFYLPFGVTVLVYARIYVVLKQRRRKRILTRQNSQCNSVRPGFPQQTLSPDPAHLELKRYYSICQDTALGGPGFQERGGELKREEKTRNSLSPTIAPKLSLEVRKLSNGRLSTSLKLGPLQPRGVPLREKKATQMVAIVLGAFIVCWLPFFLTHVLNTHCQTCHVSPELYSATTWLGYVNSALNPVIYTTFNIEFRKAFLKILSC
# measurementProtocol: Competition assay to measure binding affinity at D3 receptor
# experimentalSetup: test ligand 10 μM; [3H]methylspiperone […]
Below, each entry is listed alongside its reported D3, percent of control-specific binding.
Only the number, expressed in %, is required.

molecule=COc1cc(CCN)cc(OC)c1OC assayedtarget="D3 (h) (Homo sapiens, UniProt P35462)" quantitativeresult=−13
molecule=COc1cc2c(cc1CC(=O)NCCO)OCO2 assayedtarget="D3 (h) (Homo sapiens, UniProt P35462)" quantitativeresult=3
molecule=COc1cc2c(cc1CCN1CCCC1)OCO2 assayedtarget="D3 (h) (Homo sapiens, UniProt P35462)" quantitativeresult=46

Field request: D3, percent of control-specific binding | item: CNCC[C@H](Oc1cccc2ccccc12)c1cccs1 [Duloxetine, reference compound]
66

What about COc1cc2c(cc1CCNCCO)OCO2 ?
13

What about COc1cc2c(cc1CC(=O)N1CCCC1)OCO2 ?
7

What about O=C(Cc1ccc2c(c1)OC(F)(F)O2)N1CCCC1 ?
0

What about O=C(Cc1c(Br)ccc2c1OCO2)N1CCCC1 ?
0

What about CC(Cc1ccc2c(c1)OCO2)N1CC(NC(=O)OC(C)(C)C)C1 (stereo not drawn) ?
84

What about N#Cc1ccc2[nH]cc(CCCCN3CCN(c4ccc5oc(C(N)=O)cc5c4)CC3)c2c1 [Vilazodone, reference compound] ?
99

What about CC(Cc1ccc2c(c1)OCCO2)NCc1cc2c(cc1Br)OCO2 (stereo not drawn) ?
45

What about CC(Cc1ccc2c(c1)OCCO2)NCc1ccccc1 (stereo not drawn) ?
38

What about c1cc(CCN2CCCC2)c2c(c1)OCO2 ?
22

What about CCCOc1c(OC)cc(CCN)cc1OC [proscaline, reference compound] ?
4

---

# assayedTarget: 5-HT2B (h) (Homo sapiens, UniProt P41595)
# Construct: host or cells: CHO cells
# Sequence (P41595 whole entry): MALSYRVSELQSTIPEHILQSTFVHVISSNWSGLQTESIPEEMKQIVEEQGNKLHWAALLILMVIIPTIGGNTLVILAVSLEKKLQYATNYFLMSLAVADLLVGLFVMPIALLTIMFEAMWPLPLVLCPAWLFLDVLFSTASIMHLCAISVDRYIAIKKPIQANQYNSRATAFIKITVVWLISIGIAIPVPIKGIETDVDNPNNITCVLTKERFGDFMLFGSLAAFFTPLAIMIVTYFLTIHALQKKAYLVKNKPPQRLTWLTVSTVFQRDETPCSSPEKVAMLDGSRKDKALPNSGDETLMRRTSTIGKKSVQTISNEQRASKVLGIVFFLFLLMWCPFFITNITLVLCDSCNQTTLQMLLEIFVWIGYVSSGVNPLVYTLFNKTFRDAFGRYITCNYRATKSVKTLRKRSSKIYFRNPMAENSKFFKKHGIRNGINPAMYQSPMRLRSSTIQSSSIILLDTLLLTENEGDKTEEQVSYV
# measurementProtocol: Competition assay to measure binding affinity at 5-HT2B receptor
# experimentalSetup: test ligand 10 μM; [3H]mesulergine 2 nM
Lab note - cut at 90% for HT2B, percent of control-specific binding: Met if strictly below, Not met if not.

API: query returns whether the molecule falls strictly under 90% in HT2B, percent of control-specific binding. Query: CNC(C)Cc1ccc2c(c1)OCO2 (stereo not shown) [MDMA, reference compound]
Met

What about CC(Cc1ccc2c(c1)OCCO2)NCc1cc2c(cc1Br)OCCO2 (stereo not shown) ?
Not met

What about CCOc1c(OC)cc(CCN)cc1OC ?
Met

What about COc1cc(CCN)c(OC)cc1Br [2C-B, reference compound] ?
Not met

What about COc1cc2c(cc1CC(=O)NCCO)OCO2 ?
Met

What about CC(Cc1ccc2c(c1)OCO2)N1CCC1 (stereo not shown) ?
Met

What about CN(C)CCCN1c2ccccc2CCc2ccccc21 [Imipramine, reference compound] ?
Not met

What about CNCC[C@H](Oc1cccc2ccccc12)c1cccs1 [Duloxetine, reference compound] ?
Not met

What about N#CC(Cc1ccc2c(c1)OCO2)NC1CCC1 (stereo not shown) ?
Met

What about CC(Cc1ccc2c(c1)OCCO2)NC1CCC1 (stereo not shown) ?
Met

What about COc1ccc2cccc(CCNC(C)=O)c2c1 [Agomelatine, reference compound] ?
Not met

What about COc1cc2c(cc1CCNCCO)OCO2 ?
Met

What about Cc1ccc(Sc2ccccc2N2CCNCC2)c(C)c1 [vortioxetine, reference compound] ?
Not met

What about Brc1cc2c(cc1CCN1CCCC1)OCO2 ?
Met

What about OCCNCCc1cc2c(cc1Br)OCO2 ?
Met

What about CC(Cc1ccc2c(c1)OCO2)N1CC(NC(=O)OC(C)(C)C)C1 (stereo not shown) ?
Not met

What about COc1ccc2[nH]cc(CCNC(C)=O)c2c1 [Melatonin, reference compound] ?
Met

These measurements were taken from patent US12428408B2.
